# credit: PubChem BioAssay (NCI)

# ASSAY PROCEDURE: NCI Yeast Anticancer Drug Screen. Data for the mec2-1 strain (AID 157)
# COND: S. cerevisiae mec2-1 strain, at 50.0 µM, active compounds read high
The panel holds about 79,000 compounds, 15% with a hit somewhere; the sample as a whole holds those more often.
MEASUREMENT LABEL: growth inhibition (%)

| COMPOUND | MEASUREMENT LABEL | UNIT TAG | RECORDED VALUE |
| --- | --- | --- | --- |
| C=CCP(c1ccccc1)c1ccccc1 | growth inhibition | % | -3.75 |
| CN1CCC(O)(c2ccccc2)C(c2ccccc2)C1 (stereo not given) | growth inhibition | % | 1.05 |
| C[N+](C)(C)CC1CCCC(C[N+](C)(C)C)C1=NO (stereo not given) | growth inhibition | % | 12.1 |
| CO[C@@]12[C@H](COC(N)=O)C3=C(C(=O)C(C)=C(NCCO)C3=O)N1C[C@@H]1N[C@@H]12 | growth inhibition | % | -27.1 |
| [I][Ni][I].c1ccc([PH+](c2ccccc2)c2ccccc2)cc1.c1ccc([PH+](c2ccccc2)c2ccccc2)cc1 | growth inhibition | % | 38.4 |

* * *

# ASSAY PROCEDURE: NCI Yeast Anticancer Drug Screen. Data for the mlh1 rad18 strain (AID 175)
# COND: S. cerevisiae mlh1 rad18 strain growth inhibition; at 50.0 µM; active compounds read high
This is part of a sample that, as a whole, favours compounds with a hit. Of some 79,000 tested, about 15% had one in any assay.
Documented growth inhibition across a set of compounds
MEASUREMENT LABEL: growth inhibition (%)

| COMPOUND | MEASUREMENT LABEL | RECORDED VALUE |
| --- | --- | --- |
| S=P(C1CCCCC1)(C1CCCCC1)C(c1cccnc1)N1CCCC1 (stereo unspecified) | growth inhibition | 14.1 |
| Cc1ccc(S(=O)(=O)N/N=C(\CCN2CCCC2)CC(c2ccccc2)c2c(O)c3ccccc3oc2=O)cc1 (stereo unspecified) | growth inhibition | 17.6 |
| CCC1(CNC(=O)CN)C(=O)NC(=O)NC1=O | growth inhibition | 21.6 |
| OC(c1ccccc1)C(c1ccccc1)N1CCOCC1 (stereo unspecified) | growth inhibition | 9.75 |
| O=C(CC(=O)c1ccccc1)c1ccccc1.O=C(CC(=O)c1ccccc1)c1ccccc1.[Pd] | growth inhibition | 19.8 |
| [N-]=[N+]=NC(=O)Nc1ccccc1F | growth inhibition | 16.1 |
| Cc1nc2cccc(F)c2c(=O)n1-c1nnc(C(F)(F)F)s1 | growth inhibition | 15.5 |
| CCOP(=S)(OCC)Oc1cnn(C)c(=S)c1Cl | growth inhibition | 8.05 |
| CCOP(=O)(OCC)/C(C#N)=C/c1cccn1C | growth inhibition | -7.35 |
| COc1ccc2c(c1)C1(C)CCN(C)CC(C1)C2O (stereo unspecified) | growth inhibition | 23.2 |
| C[C@]12CCC(=O)C[C@@H]1CC[C@@H]1[C@@H]2CC[C@]2(C)[C@@H]3OCCC[C@H]3C[C@@H]12 | growth inhibition | 39.2 |

* * *

# ASSAY PROCEDURE: NCI Yeast Anticancer Drug Screen. Data for the mlh1 rad18 strain (AID 175)
# COND: S. cerevisiae mlh1 rad18 strain growth inhibition; at 50.0 µM
Compounds without any hit were thinned out: in the full panel of roughly 79,000, 15% have a hit. Active and inactive are the calls of the source. Cut-off read from the data, not from the text of the source: active = growth inhibition above about 70%; inactive = the rest.
Possible outcomes: active, inactive

| COMPOUND | ASSIGNED CLASS |
| --- | --- |
| NC(CCSCCF)C(=O)O (centres undefined) | inactive |
| C=Cn1nnnc1N | inactive |
| Cc1ccc(-c2cc(C)n(C)[n+]2C)cc1 | inactive |
| Oc1c(Cl)cccc1Cl | inactive |
| O=C1NC(=S)NC(=O)C1=Cc1ccncc1 | inactive |
| CCC[N+]12C(O)C(CC)C3CC1C1N(C)c4ccc(Br)cc4C14CC2C3C4O (centres undefined) | inactive |
| Oc1ccc(Br)cc1 | inactive |
| O=P(Nc1ccccc1)(Oc1ccccc1)N(CCCl)CCCl (centres undefined) | inactive |
| CN1CCN(c2ccc(Cl)cc2)CC1 | inactive |
| Cc1ccc(C(=O)C(C)N)cc1C (centres undefined) | inactive |
| [C-]#[O+].[C-]#[O+].[C-]#[O+].[C-]#[O+].[Cr].c1ccc(P(CCP(CCP(c2ccccc2)c2ccccc2)c2ccccc2)CCP(c2ccccc2)c2ccccc2)cc1 (centres undefined) | inactive |
| C=C(C(=C)P(=S)(C(C)C)C(C)C)P(=S)(C(C)C)C(C)C | inactive |
| Oc1cc(N2CC2)c(O)cc1N1CC1 | inactive |
| Nc1ccc2ncccc2c1 (tested in a mixture with another compound) | inactive |
| CCCCCCCCCCCCCCCC(=O)OCC(C[As](=O)(O)O)OC(=O)CCCCCCCCCCCCCCC (centres undefined) | inactive |
| C1CCC2[N-]CCCC2C1.C1CCC2[N-]CCCC2C1.[Cl][Pt+2][Cl] (centres undefined) | inactive |
| CNCC(C)c1ccccc1OC (centres undefined) | inactive |
| C/C=C1/CN2CCC1CC2C(O)c1ccnc2ccc(OCCO)cc12 (centres undefined) | inactive |
| O=S(=O)(F)c1ccccc1C[P+](c1ccccc1)(c1ccccc1)c1ccccc1 | active |
| Cc1ccc2c3c(c(=O)oc2c1)[C@H](C)C[C@@](C)(CO)O3 | inactive |
| CC(=O)OC1CC2(C)C(=CC1C1SCCS1)CCC1C2CCC2(C)C(OC(C)=O)CCC12 (centres undefined) | inactive |
| O=c1[nH]cc(Cn2cccc3c(=O)ncnc2-3)c(=O)[nH]1 | inactive |
| CC1=C[C@H]2O[C@@H]3[C@H](OC(=O)CCl)[C@@H](O)[C@](C)(C2(COC(=O)CCl)CC1)[C@@]31CO1 (some centres undefined) | active |
| O=C1c2ccccc2C2(O)C3C=CCCN3CN12 (centres undefined) | inactive |

* * *

# ASSAY PROCEDURE: NCI Yeast Anticancer Drug Screen. Data for the sgs1 mgt1 strain (AID 161);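 also: 0% = growth of cultures given vehicle only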
# COND: S. cerevisiae sgs1 mgt1 strain, at 50.0 µM
# Description: Growth inhibition of yeast strains with defined genetic alterations is measured as a screen for potential anti-cancer activity. Selected strains with alterations in DNA damage repair or cell cycle control were exposed to compounds and growth inhibition was measured relative to vehicle treated controls. The strain used in this assay is sgs1 mgt1
This is part of a sample that, as a whole, favours compounds with a hit. Of some 79,000 tested, about 15% had one in any assay. Activity calls are given as the source filed them. Cut-off read from the data, not from the text of the source: active = growth inhibition above about 70%; inactive = the rest.
Outcomes: 1 for active, 0 for inactive

| MOLECULE | ASSIGNED CLASS |
| --- | --- |
| CCCCOCCOC(=O)CCl | 0 |
| CP1(=S)CCC2=C1CCc1cc(O)ccc12 (stereo not given) | 0 |
| O=C1C(=C([O-])c2ccccc2)C(=O)c2ccccc21.O=C1C(=C([O-])c2ccccc2)C(=O)c2ccccc21.[Fe+2] | 0 |
| Cc1ccccc1.[C-]#[O+].[C-]#[O+].[C-]#[O+].[W] | 0 |
| [CH3][Sb]1([Cl])[CH2]CCC[CH2]1 | 0 |
| O=C1C2CC(CN3CCCCC23)C2CCCCN12 (stereo not given) | 0 |
| CC1CCCCN1 (stereo not given) | 0 |
| O=C1C(NCC(O)CO)=C(N2CC2)C(=O)C(NCC(O)CO)=C1N1CC1 (stereo not given) | 0 |
| [N-]=[N+]=NC12CC3CC(CC(C3)C1)C2 | 0 |
| CCOC(=O)C(N)C[S][Sn]([CH3])([CH3])[Cl] (stereo not given) | 0 |
| N#CC1(c2ccccc2)CCN(C2(c3ccccc3)CCCCC2)CC1 | 0 |
| Cc1ccc2[nH]cc(CCN)c2c1 | 0 |
| C[n+]1ccccc1-c1ccc[n+](CCCCC[n+]2cccc(-c3cccc[n+]3C)c2)c1 | 0 |
| c1ccc([Se+](c2ccccc2)c2ccccc2)cc1 | 0 |
| CNC(=O)Oc1ccc(Br)cc1Br | 0 |
| Cc1ccc(N=C(C(c2ccccc2)c2ccccc2)N(CCCl)CCCl)cc1 | 0 |
| O=C(CCC1C(=O)NC(=S)NC1=O)c1ccc2ccccc2c1 | 0 |
| N#CC(C#N)=Cc1ccc(F)cc1 | 0 |
| CC(=O)CC(C)=O | 0 |
| O=C(Nc1cc(S(=O)(=O)O)cc2cc(S(=O)(=O)O)c(N=Nc3ccc([As](=O)(O)O)cc3)c(O)c12)c1ccc([N+](=O)[O-])cc1 | 0 |
| O=c1[nH]c(=O)n(Cl)c(=O)n1Cl | 0 |
| CCCCCCP(=O)(O)O.[Zn+2] | 0 |
| O=C(CC(=O)C(F)(F)F)c1cccs1.O=C(CC(=O)C(F)(F)F)c1cccs1.O=C(CC(=O)C(F)(F)F)c1cccs1.[Gd] | 0 |
| O=C(O)c1ccccc1N(CCO)CCCl | 0 |
| O=S(=O)(F)c1cc(Cl)c(O)c(S(=O)(=O)F)c1 | 0 |
| CCC(=O)OC1(c2ccccc2)CCN(C/C=C/c2cccc3ccccc23)CC1 | 1 |
| Cc1cc(NC(=O)/C=C/c2ccc([N+](=O)[O-])cc2Cl)ccc1S(=O)(=O)F | 0 |
| CCCCN1CCC2(C)c3cc(O)ccc3CC1C2CC (stereo not given) | 0 |
| [N-]=[N+]=CC(=O)c1ccc(Cl)cc1 | 0 |
| O=NNc1cncc(NN=O)n1 | 0 |
| O=C(CCc1ccccc1)Nc1ccc(Cl)cc1C(=O)c1ccccc1 | 0 |
| CCOP(=O)(O)OCC | 0 |
| Nc1ccc(C(=O)N/N=C/c2ccc(N(CCBr)CCBr)cc2)cc1 | 0 |
| Nc1nc(N)c(N)c(N)n1 | 0 |
| CCOC(=O)C(CC)(CC)C(=O)OCC | 0 |
| CC(CN1NC12CCCC2)N1NC12CCCC2 (stereo not given) | 0 |
| CCCOP1(=O)C=C(O)C(Cl)=C(C)C1 (stereo not given) | 0 |
| COC(=O)COC1CC[CH-]CC1.[Cl-].[Cl-].[Cl-].[Cl-].[Cl-].[Sb+5].c1ccncc1 | 0 |
| NC1CN2CCC1CC2 (stereo not given) | 0 |
| Oc1cc(Cl)ccc1Cl | 1 |
| CC1CS1 (stereo not given) | 0 |
| COc1ccccc1CCN | 0 |
| C#CC1(OC(C)=O)CCC2C3CCC4=CC(=O)CCC4(C)C3CCC21C (stereo not given) | 0 |
| O=NN1CCCCCCC1C(=O)O (stereo not given) | 0 |
| N.N.NC(CS)C(=O)[O-].NC(CS)C(=O)[O-].[Pt+4] (stereo not given) | 0 |
| N.N.N.O=[N+]([O-])[O-].O=[N+]([O-])[O-].O=[N+]([O-])[O-].O=[N+]([O-])[O-].[Co+3] | 0 |
| C/C=C1/CN2C3C[C@H]1C(CO)(C(=O)OC)[C@H]2Cc1c3n(C)c2ccccc12 (stereo not given in full) | 0 |
| CC1CC(C)(C)[N+](C)(CCC(C(N)=O)(c2ccccc2)c2ccccc2)C1 (stereo not given) | 0 |
| CCOP(=O)(OCC)/C(C#N)=C/c1nccn1C | 0 |
| C=COC(N)=O | 0 |
